Target: T1, HEK293/mPRLR (Mus musculus, UniProt Q08501)
T1 construct: HA; expressed in transfected cells; host or cells: HEK293
T1 sequence (Q08501 20-608): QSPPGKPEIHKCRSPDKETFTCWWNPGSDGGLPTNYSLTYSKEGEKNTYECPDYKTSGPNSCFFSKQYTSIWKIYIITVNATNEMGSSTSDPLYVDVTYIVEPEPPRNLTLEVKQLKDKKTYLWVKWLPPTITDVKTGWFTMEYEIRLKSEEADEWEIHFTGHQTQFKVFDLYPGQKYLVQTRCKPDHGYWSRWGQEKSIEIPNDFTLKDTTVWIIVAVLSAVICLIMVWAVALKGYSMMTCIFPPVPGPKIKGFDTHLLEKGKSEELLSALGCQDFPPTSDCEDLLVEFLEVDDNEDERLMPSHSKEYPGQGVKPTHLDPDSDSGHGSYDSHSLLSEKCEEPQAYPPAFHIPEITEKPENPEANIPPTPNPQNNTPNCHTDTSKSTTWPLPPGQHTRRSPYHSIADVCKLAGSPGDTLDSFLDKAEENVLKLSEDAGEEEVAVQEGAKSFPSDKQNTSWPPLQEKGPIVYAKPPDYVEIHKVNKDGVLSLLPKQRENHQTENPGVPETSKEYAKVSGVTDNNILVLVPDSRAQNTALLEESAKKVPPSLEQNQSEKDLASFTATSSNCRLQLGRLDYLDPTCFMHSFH
Experiment: FACS cell surface binding
Reported metric: FACS Cell Binding (Fold Above Background)
Write down the numeric answer in Fold Above Background and omit the unit.

Enquiry: Tell me the measured FACS Cell Binding (Fold Above Background) of H1H6960N: human IgG1 Fc form of H2M6960N; anti-PRLR; HCVR/LCVR SEQ ID NOs 322/330 (antibody, V domains shown, human IgG1 Fc) VH: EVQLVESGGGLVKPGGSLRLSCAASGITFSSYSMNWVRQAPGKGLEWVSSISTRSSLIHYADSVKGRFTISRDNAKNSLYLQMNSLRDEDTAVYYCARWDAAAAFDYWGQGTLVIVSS VL: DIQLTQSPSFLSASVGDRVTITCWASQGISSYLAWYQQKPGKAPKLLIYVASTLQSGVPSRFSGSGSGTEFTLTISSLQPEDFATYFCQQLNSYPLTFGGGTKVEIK , please.
Return: 1

Data origin, for the record: patent US9688764B2
